# System: ENR+CD organoids
# procedure-summary: Primary screen: ATP (CellTiter-Glo 3D, CTG) cell number/viability, 2.5-D 384-well ENR+CD organoids
# setup-conditions: primary screen, dose 0.40 uM
readout-type: Z.CTG (standard z score)

compound	Z.CTG (standard z score)
CC(C)c1c(C(=O)Nc2ccccc2)c(-c2ccccc2)c(-c2ccc(F)cc2)n1CC[C@@H](O)C[C@@H](O)CC(=O)[O-].CC(C)c1c(C(=O)Nc2ccccc2)c(-c2ccccc2)c(-c2ccc(F)cc2)n1CC[C@@H](O)C[C@@H](O)CC(=O)[O-].[Ca+2] [Atorvastatin Calcium]	−0.831
CO[C@H]1C[C@@H]2CC[C@@H](C)[C@@](O)(O2)C(=O)C(=O)N2CCCC[C@H]2C(=O)O[C@H]([C@H](C)C[C@@H]2CC[C@@H](OC(=O)C(C)(CO)CO)[C@H](OC)C2)CC(=O)[C@H](C)/C=C(\C)[C@@H](O)[C@@H](OC)C(=O)[C@H](C)C[C@H](C)/C=C/C=C/C=C/1C [Temsirolimus (CCI-779, NSC 683864)]	1.393

stdin: Report measured Z.CTG (standard z score); entry is CN1CCCCC1Cn1cc(C(=O)c2cc([N+](=O)[O-])ccc2I)c2ccccc21 (stereo not drawn) [AM1241]
stdout: −0.129

* * *

# System: ENR+CD organoids
# procedure-summary: Primary screen: ATP (CellTiter-Glo 3D, CTG) cell number/viability, 2.5-D 384-well ENR+CD organoids
# setup-conditions: primary screen, dose 0.08 uM
readout-type: Dose.FC.CTG
Record the result as number plus unit.

Examples from the recorded data:
> print(dat)
                                   compound              assay.value
1  Cc1nc(C(=O)NCC(=O)O)c(O)c2ccc(Oc3ccccc3)cc12   0.327 log2 fold change
2  COc1cc(Nc2ncc(F)c(Nc3ccc4c(n3)N(COP(=O)(O)O)C(=O)C(C)(C)O4)n2)cc(OC)c1OC [Fostamatinib (R788)]   0.232 log2 fold change
3  C[C@@H]1CCN(C(=O)CC#N)C[C@@H]1N(C)c1ncnc2[nH]ccc12   0.130 log2 fold change
4  CC(C)c1cc(-c2n[nH]c(=O)n2-c2ccc3c(ccn3C)c2)c(O)cc1O [Ganetespib (STA-9090)]  −1.450 log2 fold change
5  CCc1cccc2c3c([nH]c12)C(CC)(CC(=O)O)OCC3 (stereo not shown)  −0.061 log2 fold change
6  CCO[C@@H]1OC(=O)C[C@@H]1NC(=O)[C@@H]1CCCN1C(=O)[C@@H](NC(=O)c1ccc(N)c(Cl)c1)C(C)(C)C   0.154 log2 fold change

Let us move to another entry and its Dose.FC.CTG.
stdin: Report measured Dose.FC.CTG; entry is C=C[C@@]1(C)CC(=O)[C@]2(O)[C@@]3(C)[C@@H](O)CCC(C)(C)[C@@H]3[C@H](O)[C@H](OC(C)=O)[C@@]2(C)O1
stdout: −0.213 log2 fold change

* * *

# System: ENR+CD organoids
# procedure-summary: Primary screen: ATP (CellTiter-Glo 3D, CTG) cell number/viability, 2.5-D 384-well ENR+CD organoids;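 further: compounds given at plating and again on day 3 over a 6-day differentiation from ENR+CV stem-cell-enriched precursors, ATP measured on day 6, plate median as control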
# setup-conditions: primary screen, dose 10.00 uM
readout-type: Dose.FC.CTG (log2 fold change)
Numbers only, in log2 fold change.

Examples from the recorded data:
compound	system-under-test	Dose.FC.CTG, log2 fold change
CC[C@H](NC(=O)[C@H](C)NC)C(=O)N1C[C@@H](O)C[C@H]1Cc1c(-c2[nH]c3cc(F)ccc3c2C[C@@H]2C[C@H](O)CN2C(=O)[C@H](CC)NC(=O)[C@H](C)NC)[nH]c2cc(F)ccc12	ENR+CD organoids	0.123
NC(=O)C1CCCc2c1[nH]c1ccc(Cl)cc21 (stereo not drawn) [EX 527 (Selisistat)]	ENR+CD organoids	0.320

Let us move to another entry and its Dose.FC.CTG.
stdin: Report measured Dose.FC.CTG; entry is CCOC(=O)C1=C(COCCN)NC(C)=C(C(=O)OC)C1c1ccccc1Cl (stereo not drawn)
stdout: −0.421

* * *

What Dose.FC.LYZ.NS was measured for each of the following?
# Test system: ENR+CD organoids (ISC to Paneth cell differentiation)
# procedure-summary: Primary screen: basal (non-stimulated) lysozyme secretion LYZ.NS, 2.5-D 384-well ENR+CD organoid differentiation
# Assay type: cell-based, mouse
# setup-conditions: primary screen, dose 0.40 uM
Give bare numbers, in log2 fold change.

> print(dat)
                                   compound       result.unit  assay.value
1  CNCc1ccc(-c2cc(-c3nc(-c4ccc(S(=O)(=O)C(C)C)cc4)cnc3N)on2)cc1  log2 fold change       −0.040
2  COc1ccc2nc([S@@+]([O-])Cc3ncc(C)c(OC)c3C)[nH]c2c1 [Esomeprazole Sodium]  log2 fold change        0.233

Hi there! I need Dose.FC.LYZ.NS for each item below, if you can.
1. Cc1[nH]c2ccccc2c1CCNC(=O)c1cccs1
2. CCN(c1cc(-c2ccc(CN3CCOCC3)cc2)cc(C(=O)NCc2c(C)cc(C)[nH]c2=O)c1C)C1CCOCC1
3. CN(C)C(=O)c1ccc(S(=O)(=O)c2ccc(NC(=O)[C@@](C)(O)C(F)(F)F)c(Cl)c2)cc1

stdout:
−0.049
−0.023
−0.028

Hi there! I need Dose.FC.LYZ.NS for each item below, if you can.
1. C[C@H](Oc1cc(-c2cnn(C3CCNCC3)c2)cnc1N)c1c(Cl)ccc(F)c1Cl [(S)-crizotinib]
2. C[C@@H](c1ncncc1F)[C@](O)(Cn1cncn1)c1ccc(F)cc1F
3. C[C@]12CC[C@@H]3c4ccc(O)cc4C[C@@H](CCCCCCCCC[S+]([O-])CCCC(F)(F)C(F)(F)F)[C@H]3[C@@H]1CC[C@@H]2O (stereo partly shown)
4. CCn1c2ccccc2c2cc(Nc3ccnc(NCCCN4CCOCC4)n3)ccc21
5. CC(C)(C)NC(=O)[C@H]1CC[C@H]2[C@@H]3CC[C@H]4NC(=O)C=C[C@]4(C)[C@H]3CC[C@]12C [Finasteride, reference compound]

stdout:
0.009
0.193
−0.050
0.035
0.213

* * *

What Dose.FC.LYZ.S was measured for each of the following?
# System: ENR+CD organoids (ISC to Paneth cell differentiation)
# procedure-summary: Primary screen: CCh-stimulated lysozyme secretion LYZ.S, 2.5-D 384-well ENR+CD organoid differentiation
# Assay type: cell-based, mouse
# setup-conditions: primary screen, dose 0.08 uM
Where a name gives a salt, the structure may show the parent alone.
One number for each entry, in log2 fold change.

Examples from the recorded data:
compound	Dose.FC.LYZ.S (log2 fold change)
CCn1c2ccccc2c2cc(Nc3ccnc(NCCCN4CCOCC4)n3)ccc21	0.091
CNCc1ccc(-c2cc(-c3nc(-c4ccc(S(=O)(=O)C(C)C)cc4)cnc3N)on2)cc1	0.104
CO[C@H]1C[C@@H]2CC[C@@H](C)[C@@](O)(O2)C(=O)C(=O)N2CCCC[C@H]2C(=O)O[C@H]([C@H](C)C[C@@H]2CC[C@@H](OCCO)[C@H](OC)C2)CC(=O)[C@H](C)/C=C(\C)[C@@H](O)[C@@H](OC)C(=O)[C@H](C)C[C@H](C)/C=C/C=C/C=C/1C [Everolimus (RAD001)]	−0.012
N#CC1(c2ccc(NC(=O)c3cccnc3NCc3ccncc3)cc2)CCCC1	0.173
CC(/C=C/C(=O)NO)=C\[C@@H](C)C(=O)c1ccc(N(C)C)cc1	−0.124

Hi there! I need Dose.FC.LYZ.S for each item below, if you can.
1. c1ccc(CC2=NCCN2)cc1 [Tolazoline HCl]
2. C[C@H](N[C@@H](CCc1ccccc1)C(=O)O)C(=O)N1CCC[C@H]1C(=O)O.O.O [Enalaprilat Dihydrate]

stdout:
0.169
−0.001

* * *

# Tested on: ENR+CD organoids (ISC to Paneth cell differentiation)
# procedure-summary: Primary screen: basal (non-stimulated) lysozyme secretion LYZ.NS, 2.5-D 384-well ENR+CD organoid differentiation
# Assay type: cell-based, mouse
# setup-conditions: primary screen, dose 2.00 uM
Structures can show the parent of a compound that is named as a salt.
readout-type: Dose.FC.LYZ.NS (log2 fold change)

> print(dat)
                                   molecule  assay.value
1  CCOC(=O)[C@H](CCc1ccccc1)N[C@@H](C)C(=O)N1C(=O)N(C)C[C@H]1C(=O)O [Imidapril HCl]        0.014

Hi there! I need Dose.FC.LYZ.NS (log2 fold change) for each item below, if you can.
1. CCOC(=O)N1CCC(=C2c3ccc(Cl)cc3CCc3cccnc32)CC1 [Loratadine]
2. NC(=O)c1ccc(I)c([N+](=O)[O-])c1 [Iniparib (BSI-201)]
3. C[C@@H](Oc1cc(-n2cnc3ccc(CN4CCN(C)CC4)cc32)sc1C(N)=O)c1ccccc1C(F)(F)F [GSK461364]

stdout:
["−0.108", 0.016, "−0.246"]

stdin: Report measured Dose.FC.LYZ.NS (log2 fold change); entry is Cc1cccc(-c2nn3c(c2-c2ccnc4ccc(C(N)=O)cc24)CCC3)n1 [LY2157299]
stdout: 0.092
